Data credit: PubChem BioAssay (Tox21)

Biological target: Luciferin 4-monooxygenase (Photinus pyralis) (UniProt P08659)
Sequence (P08659 whole entry, looked up): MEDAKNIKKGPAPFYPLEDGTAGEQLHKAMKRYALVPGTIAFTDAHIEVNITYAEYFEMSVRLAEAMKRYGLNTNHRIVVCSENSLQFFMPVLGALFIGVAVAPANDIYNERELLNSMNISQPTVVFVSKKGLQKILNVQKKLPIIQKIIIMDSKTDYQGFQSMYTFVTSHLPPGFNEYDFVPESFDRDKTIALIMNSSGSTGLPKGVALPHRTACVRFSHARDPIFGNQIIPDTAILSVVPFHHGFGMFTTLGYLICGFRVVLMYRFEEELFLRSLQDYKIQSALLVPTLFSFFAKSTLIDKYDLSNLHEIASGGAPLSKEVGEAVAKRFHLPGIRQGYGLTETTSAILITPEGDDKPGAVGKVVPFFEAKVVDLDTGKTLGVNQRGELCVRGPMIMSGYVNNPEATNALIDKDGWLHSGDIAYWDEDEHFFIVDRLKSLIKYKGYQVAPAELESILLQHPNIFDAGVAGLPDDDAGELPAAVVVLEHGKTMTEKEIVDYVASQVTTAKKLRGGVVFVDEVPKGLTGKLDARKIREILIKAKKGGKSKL
Assay: qHTS assay to identify small molecule inhibitors of firefly luciferase (AID 1224835); also: nearly all actives have a fitted effect of over 25% in size
Settings: purified P. pyralis luciferase, luminescence inhibition; series mostly up to 115 µM
From the text: U.S. Tox21 Program National Center for Advancing Translational Sciences [NCATS] NIH Chemical Genomics Center [NCGC] U.S. Environmental Protection Agency [EPA] National Institutes of Environmental Health Sciences [NIEHS] National Toxicology Program [NTP] U.S. Food and Drug Administration [FDA] Tox21 Assay Overview: Firefly (Photinus pyralis) luciferase is one of the most commonly used transcriptional reporters. […]
Records with an inconclusive call do not appear. The source made the active and inactive calls. Calls follow the shape of the dose curve; as a rule, active = well fitted inhibition curve with a large enough effect in the repeat runs; inconclusive = weak or mixed curves; inactive = flat fitted curve, though single readings scatter.
Classes used: active, inactive

# smiles.input, measured.on, label.value
measured = [
    ("O=C(O)Cc1c(Cl)ccc(Cl)c1Cl", "Luciferin 4-monooxygenase (Photinus pyralis) (UniProt P08659)", "inactive"),
    ("O=C(OOC(=O)c1ccccc1)c1ccccc1", "Luciferin 4-monooxygenase (Photinus pyralis) (UniProt P08659)", "inactive"),
    ("CC(C)(C)OC=O", "Luciferin 4-monooxygenase (Photinus pyralis) (UniProt P08659)", "inactive"),
    ("COCc1nnc(-c2ccc[n+]([O-])c2)n1-c1c(Cl)c(Cl)cc2[nH]c(=O)c(=O)[nH]c12", "Luciferin 4-monooxygenase (Photinus pyralis) (UniProt P08659)", "inactive"),
    ("CCO[Si](CC(C)C)(OCC)OCC", "Luciferin 4-monooxygenase (Photinus pyralis) (UniProt P08659)", "inactive"),
    ("Cc1ccc(OC(=O)CC(C)C)cc1", "Luciferin 4-monooxygenase (Photinus pyralis) (UniProt P08659)", "active"),
    ("CC(=O)Nc1ccc(S(=O)(=O)Nc2cc(C)on2)cc1", "Luciferin 4-monooxygenase (Photinus pyralis) (UniProt P08659)", "inactive"),
]
